Where do the numbers come from? From patent US20200173986A1.

Ratio197/206 (A450 with SNAP25197 to A450 with SNAP25FL) by entry:
- TARGET OR SYSTEM: T1, recombinant GST-SNAP25197 (UniProt P60880 1-197)
- T1 construct: not shown: glutathione S-transferase (GST) tag
- T1 sequence (P60880 1-197): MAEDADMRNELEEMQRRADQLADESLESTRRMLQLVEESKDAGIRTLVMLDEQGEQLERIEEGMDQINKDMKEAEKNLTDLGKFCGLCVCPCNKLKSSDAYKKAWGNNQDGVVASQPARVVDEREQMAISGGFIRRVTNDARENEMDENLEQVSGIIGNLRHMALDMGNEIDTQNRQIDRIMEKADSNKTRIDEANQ
- PROTOCOL: direct ELISA; signal on GST-SNAP25197 against GST-SNAP25FL as reference
Write the numeric value and append its unit.

Reference set (4 entries):
[
  {
    "BINDER": "C14 IgG (antibody, V domains shown) VH: EVKLVESGGGLVQPKGSLKLSCAASGFTFNTNAMNWVRQAPGKGLEWVARIRSKSDNYATYYADSVKDRFTISRDDSPSMLYLQMNNLKTEDTAMYYCVYGRSYGGLGYWGQGTLVTVSA VL: DIVLTQSPASLAVSLGQRATISCRASKSVSTSGYSYVHWYQQKPGQPPKLLIYLASNLESGVPARFSGSGSGTDFTLNIHPVEEEDAATYYCQHSRELPLTFGAGTKLELK",
    "VALUE OBSERVED": "953 ratio"
  },
  {
    "BINDER": "C4 IgG (antibody, V domains shown) VH: DVKLQESGPGLVKPSQSLSLTCTVTGYSITSDYAWNWIRQFPGNKLEWMGYISYSVGTRYNPSLKSRISITRDTSKNQFFLLLKSVTNEDTATYFCARKGEYGFAYWGQGTLVTVSA VL: DIVMTQSPASLAVSLGQRATISCRASKSVSTSGYSYMHWYQQKPGQPPKLLIYLASNLESGVPARFSGSGSGTDFTLNIHPVEEEDAATYYCQHSRELPLTFGAGTKLELK",
    "VALUE OBSERVED": "919 ratio"
  },
  {
    "BINDER": "D2 IgG (antibody, V domains shown) VH: DVKLQESGPGLVKPSQSLSLTCSVTGYSITSGYYWNWIRQFPGNKLEWMGYIRYDGSNNYNPSLKNRISITRDTSKNQFFLKLNSVTTEDTASYYCARDRDSSYYFDYWGQGTALTVSS VL: DIVMTQSSSYLSVSLGGRVTITCKASDHINNWLAWYQQKPGNAPRLLISDTTSLETGVPSRFSGSGSGKDYTLSITSLQTEDVATYYCQQYWSAPPTFGGGTKLEIK",
    "VALUE OBSERVED": "0.03 ratio"
  },
  {
    "BINDER": "C16 IgG (antibody, V domains shown, also called C16 IgG1) VH: EVQLQQSGAELARPGASVQMSCKAFGYTFTNYTMHWVRQRPGQGLEWIGFINPSSDYTNYNQKFKDKATLSADKSSSTAYMQLSSLTSEDSAVYYCARRIFYNGRTYAAMDYWGQGTSVTVSS VL: DIVMTQSPASLAVSLGQRATISCRASKSVSSSGYSYMHWYQQKPGQPPKLLIYLASNLESGVPARFSGSGSGTDFTLNIHPVEEEDAATYYCQHSRELPLTFGAGTKLELK",
    "VALUE OBSERVED": "996 ratio"
  }
]

Field: next binder
[in] Give its Ratio197/206 (A450 with SNAP25197 to A450 with SNAP25FL) value. Item: C24 IgG (antibody, V domains shown) VH: EVKLVESGGGLVQPKGSLKLSCAASGYTFNTYAMNWVRQAPGKGLEWVARIRSKSNNYTTYYADSVKDRFTISRDDSQSMLYLQINNLKTEDTAMYYCVGQILYYYVGSPAWFAYWGQGTLVTVSA VL: DIVMTQSPASLAVSLGQRATISCRASKSVSTSGYSYMHWYQQKPGQPPKLLIFLASNLESGVPARFSGSGSGTDFTLNIHPVEEEDAATYYCQHSRELPWTFGGGTKLEIK
[out] 973 ratio
